target.entity: BRM (Homo sapiens, UniProt P51531)
Construct: Western Blot Screen of BRM Degradation in SW1573 Cells; endogenous in cells; host or cells: SW1573 cells
Sequence (P51531 whole entry): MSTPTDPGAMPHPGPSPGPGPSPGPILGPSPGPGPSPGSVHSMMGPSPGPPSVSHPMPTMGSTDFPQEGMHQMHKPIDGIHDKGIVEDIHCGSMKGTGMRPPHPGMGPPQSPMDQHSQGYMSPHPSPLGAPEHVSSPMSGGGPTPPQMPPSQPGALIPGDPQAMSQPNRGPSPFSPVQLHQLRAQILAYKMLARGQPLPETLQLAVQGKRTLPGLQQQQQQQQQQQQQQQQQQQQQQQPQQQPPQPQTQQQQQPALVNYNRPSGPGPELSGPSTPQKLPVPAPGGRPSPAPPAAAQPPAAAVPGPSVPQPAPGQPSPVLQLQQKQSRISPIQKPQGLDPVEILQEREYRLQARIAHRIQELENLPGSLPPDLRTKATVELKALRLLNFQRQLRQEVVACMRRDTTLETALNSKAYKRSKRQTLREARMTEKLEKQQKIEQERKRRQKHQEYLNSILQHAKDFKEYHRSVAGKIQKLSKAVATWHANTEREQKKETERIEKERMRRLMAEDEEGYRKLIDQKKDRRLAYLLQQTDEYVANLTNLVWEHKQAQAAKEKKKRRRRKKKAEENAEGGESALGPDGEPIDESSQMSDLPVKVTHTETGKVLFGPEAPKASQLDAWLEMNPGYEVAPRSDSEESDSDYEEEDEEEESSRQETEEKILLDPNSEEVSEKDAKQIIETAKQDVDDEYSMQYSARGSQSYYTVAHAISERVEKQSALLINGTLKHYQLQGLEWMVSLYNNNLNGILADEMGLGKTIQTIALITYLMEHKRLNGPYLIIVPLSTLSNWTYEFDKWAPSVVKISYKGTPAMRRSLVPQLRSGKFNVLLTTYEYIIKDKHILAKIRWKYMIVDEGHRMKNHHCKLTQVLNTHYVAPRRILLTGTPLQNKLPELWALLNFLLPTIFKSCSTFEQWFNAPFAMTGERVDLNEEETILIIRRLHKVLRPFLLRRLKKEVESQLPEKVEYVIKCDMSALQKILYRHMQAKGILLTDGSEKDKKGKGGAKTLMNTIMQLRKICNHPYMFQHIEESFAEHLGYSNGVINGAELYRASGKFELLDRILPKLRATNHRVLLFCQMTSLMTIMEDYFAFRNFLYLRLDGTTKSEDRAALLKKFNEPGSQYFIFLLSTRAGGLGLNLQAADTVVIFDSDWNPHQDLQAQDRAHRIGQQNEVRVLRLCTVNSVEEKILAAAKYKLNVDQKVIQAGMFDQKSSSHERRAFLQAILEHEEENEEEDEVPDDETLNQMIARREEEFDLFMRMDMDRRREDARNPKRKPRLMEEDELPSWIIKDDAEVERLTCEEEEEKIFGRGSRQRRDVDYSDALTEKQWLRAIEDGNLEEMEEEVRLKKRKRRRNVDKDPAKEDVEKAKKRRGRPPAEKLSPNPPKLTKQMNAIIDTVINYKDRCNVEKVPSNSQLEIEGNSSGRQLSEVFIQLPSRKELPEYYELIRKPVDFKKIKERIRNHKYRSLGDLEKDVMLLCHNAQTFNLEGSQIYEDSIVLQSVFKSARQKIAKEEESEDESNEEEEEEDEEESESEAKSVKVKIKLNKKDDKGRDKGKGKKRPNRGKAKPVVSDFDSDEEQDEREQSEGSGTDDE
test.summary: BRM degradation (Dmax and DC50) in SW1573 cells, Western blot screen / In-Cell Western screen
Type: cell-based
experimental.context: overnight (18-20 hours) treatment

compound | DC50
Cc1ncsc1-c1ccc([C@H](C)NC(=O)[C@@H]2C[C@@H](O)CN2C(=O)[C@@H](c2cc(N3CCC(CN4CCC(O[C@H]5C[C@H](N6CCC([C@@H](C)c7cnn(-c8cc(-c9ccccc9O)nnc8N)c7)CC6)C5)CC4)CC3)no2)C(C)C)cc1 | < 2.5 nM
Cc1ncsc1-c1ccc([C@H](C)NC(=O)[C@@H]2C[C@@H](O)CN2C(=O)C(c2cc(N3CCC(OC(=O)N4CCC(Oc5cc(N6CCN(c7cc(-c8ccccc8O)nnc7N)CC6)ccn5)CC4)CC3)no2)C(C)C)cc1 (some centres unmarked) | 2.5 to 10 nM
Cc1ncsc1-c1ccc([C@H](C)NC(=O)[C@@H]2C[C@@H](O)CN2C(=O)[C@H](c2cc(N3CCC(n4cnc(CN5CCC(O[C@H]6C[C@H](Oc7cc(N8C9CCC8CN(c8cc(-c%10ccccc%10O)nnc8N)C9)ccn7)C6)CC5)c4)CC3)no2)C(C)C)cc1 | ≥ 30 nM
Cc1ncsc1-c1ccc([C@H](C)NC(=O)[C@@H]2C[C@@H](O)CN2C(=O)[C@@H](c2cc(N3CCC(CN4CCC(O[C@H]5C[C@@H](N6CCC([C@H](C)n7cc(-c8cc(-c9ccccc9O)nnc8N)cn7)CC6)C5)CC4)CC3)no2)C(C)C)cc1 | < 2.5 nM
Cc1ncsc1-c1ccc([C@H](C)NC(=O)[C@@H]2C[C@@H](O)CN2C(=O)[C@@H](c2cc(N3CCC(CN4CCC5(CC4)CC(N4CCO[C@@H](C(C)n6cc(-c7cc(-c8ccccc8O)nnc7N)cn6)C4)C5)CC3)no2)C(C)C)cc1 (some centres unmarked) | < 2.5 nM
Cc1ncsc1-c1ccc([C@H](C)NC(=O)[C@@H]2C[C@@H](O)CN2C(=O)[C@@H](c2cc(N3CCC(CN4CCC(O[C@H]5C[C@H](N6CCC(C(C)n7cc(/C=C/c8cc(-c9ccccc9O)nnc8N)cn7)CC6)C5)CC4)CC3)no2)C(C)C)cc1 (some centres unmarked) | < 2.5 nM
CC(C)[C@H](C(=O)N1C[C@H](O)C[C@H]1C(=O)N[C@@H](C)c1ccc(-c2scnc2C#CCOCCOCCOCCOCCOc2cc(N3C4CCC3CN(c3cc(-c5ccccc5O)nnc3N)C4)ccn2)cc1)N1Cc2ccccc2C1=O | ≥ 30 nM
Cc1ncsc1-c1ccc([C@H](C)NC(=O)[C@@H]2C[C@@H](O)CN2C(=O)[C@@H](c2cc(N3CCC(CN4CCC(CN5CCC6(CC5)CC(N5CCC(C(C)n7cc(-c8cc(-c9ccccc9O)nnc8N)cn7)CC5)C6)CC4)CC3)no2)C(C)C)cc1 (some centres unmarked) | < 2.5 nM
